assay-text: Rat PK: plasma xanomeline after single subcutaneous (SC) dosing of xanomeline or xanomeline prodrugs at 1 mg/kg (Example A-1)
Type: in vivo, male Sprague-Dawley (SD) rats
condition-label: male, Sprague-Dawley, xanomeline analyte in plasma, Mean of animals (Table 3)
experimental-endpoint: Tmax (min)

molecular-string	experimental-endpoint	u	measurement
CCCCCCOc1nsnc1C1=CCCN(C)C1	Tmax	min	15

* * *

assay-text: Rat PK: plasma xanomeline after subcutaneous (SC) dosing of xanomeline, prodrugs or pamoate salts at 5 mg/kg or 3.5 mg/kg (Example A-2)
Type: in vivo, male Sprague-Dawley (SD) rats
condition-label: male, Sprague-Dawley, plasma, sc, parent xanomeline dosed SC, individual animals, read-out: Xanomeline (SC) AUC0-last

molecular-string	AUC(0-t), ng·h/mL
CCCCCCOc1nsnc1C1=CCCN(C)C1	180

* * *

assay-text: Rat PK: plasma prodrug concentration after intramuscular (IM) dosing of xanomeline prodrugs at 5 mg/kg (Example A-4)
Type: in vivo, male Sprague-Dawley (SD) rats
condition-label: male, Sprague-Dawley, im, 5 mg/kg, analyte prodrug, IM 5 mg/kg of xanomeline, Mean

compound	u	Cmax
CCCCCCOc1nsnc1C1=CCC[N+](C)(C(C)OC(=O)C(C)(C)C)C1 (stereo not shown)	ng/mL	218

* * *

assay-text: Rat PK: plasma xanomeline after single subcutaneous (SC) dosing of xanomeline or xanomeline prodrugs at 1 mg/kg (Example A-1)
Format: in vivo, male Sprague-Dawley (SD) rats
condition-label: male, Sprague-Dawley, plasma, sc, xanomeline analyte in plasma, Mean of animals (Table 3), read-out: AUCINF_obs

molecular-string	u	AUC(0-inf)
CCCCCCOc1nsnc1C1=CCCN(C)C1	ng·h/mL	42

* * *

assay-text: Rat PK: plasma prodrug concentration after intramuscular (IM) dosing of xanomeline prodrugs at 5 mg/kg (Example A-4)
Assay type: in vivo, male Sprague-Dawley (SD) rats
condition-label: male, Sprague-Dawley, intramuscular, 5 mg/kg, 48.0 h, IM 5 mg/kg of xanomeline, individual animals, read-out: Prodrug Plasma Concentrations Following Intramuscular Dosing

compound	concentration at 48 h, ng/mL
CCCCCCOc1nsnc1C1=CCC[N+](C)(C(C)OC(=O)C(C)(C)C)C1 (stereo not shown) [Compound 19]	0.775

* * *

assay-text: Rat PK: plasma prodrug concentration after intravenous (IV) dosing of xanomeline prodrugs at 1 mg/kg (Example A-6)
Format: in vivo, male Sprague-Dawley (SD) rats
condition-label: male, Sprague-Dawley, iv, 1 mg/kg, analyte prodrug, IV 1 mg/kg of xanomeline, Mean

compound	u	Cmax
CCCCCCOc1nsnc1C1=CCC[N+](C)(C(CC)OC(=O)C(C)(C)C)C1 (centres unmarked) [Compound 352]	ng/mL	33.2
CCCCCCOc1nsnc1C1=CCC[N+](C)(C(C)OC(=O)C(C)(C)C)C1 (centres unmarked) [Compound 19]	ng/mL	27.2

* * *

assay-text: Rat PK: plasma prodrug concentration after intramuscular (IM) dosing of xanomeline prodrugs at 5 mg/kg (Example A-4)
Format: in vivo, male Sprague-Dawley (SD) rats
condition-label: male, Sprague-Dawley, analyte prodrug, IM 5 mg/kg of xanomeline, Mean
Attribute: Tmax

molecule	Tmax
CCCCCCOc1nsnc1C1=CCC[N+](C)(C(CC)OC(=O)C(C)(C)C)C1 (centres unmarked)	30 min
CCCCCCOc1nsnc1C1=CCC[N+](C)(C(C)OC(=O)C(C)(C)C)C1 (centres unmarked)	30 min
